- Protocol notes: Toxicity in brine shrimp after 24 hrs
- Format: organism-based
- Cond: artemia, in vivo; read-out: LD50

# Compound, LC50 at 24 h [µg/mL]
records = [
    ("COC(=O)C1=CO[C@H](O[C@@H]2O[C@H](CO)[C@@H](O)[C@H](O)[C@H]2O)[C@H]2[C@@H]1C=C[C@@]21C=C(C(O)c2ccc(O)cc2)C(=O)O1 (some centres not stated) [GAERTNEROSIDE]", 0.38),
]

---

- Protocol notes: Toxicity in brine shrimp after 48 hrs
- Format: organism-based
- Cond: artemia, in vivo; read-out: LD50

# Compound, LC50 at 48 h (nM)
rows = [
    ("COC(=O)C1=CO[C@H](O[C@@H]2O[C@H](CO)[C@@H](O)[C@H](O)[C@H]2O)[C@H]2[C@@H]1C=C[C@@]21C=C(C(O)c2ccc(O)cc2)C(=O)O1 (stereo partly specified) [GAERTNEROSIDE]", 224),
]
